Target: T1, human IGSF11 (VSIG3) expressed on cells (human, UniProt Q5DX21 23-431)
T1 sequence: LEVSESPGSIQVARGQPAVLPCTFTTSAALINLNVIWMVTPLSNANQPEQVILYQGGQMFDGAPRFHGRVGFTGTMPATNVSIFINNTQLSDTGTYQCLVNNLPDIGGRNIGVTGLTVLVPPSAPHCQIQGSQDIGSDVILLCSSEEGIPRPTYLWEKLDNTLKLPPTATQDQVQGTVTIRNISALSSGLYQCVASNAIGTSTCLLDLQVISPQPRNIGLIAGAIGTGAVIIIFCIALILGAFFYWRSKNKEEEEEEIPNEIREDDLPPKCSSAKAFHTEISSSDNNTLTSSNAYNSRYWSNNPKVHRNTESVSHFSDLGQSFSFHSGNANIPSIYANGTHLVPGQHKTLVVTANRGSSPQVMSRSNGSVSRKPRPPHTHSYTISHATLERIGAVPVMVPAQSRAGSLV
Assay: FACS, DMS 273 cells with scrambled control siRNA (SC)
Overview of reported % binding (FACS heat-map) across a group of binders:
quantity: % binding (FACS heat-map) (%)

- binder: "A-027 (IgG1 format) (antibody, V domains shown, human IgG1 format) VH: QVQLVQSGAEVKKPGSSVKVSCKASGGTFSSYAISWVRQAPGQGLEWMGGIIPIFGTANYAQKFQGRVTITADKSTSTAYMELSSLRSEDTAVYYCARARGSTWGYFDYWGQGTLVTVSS VL: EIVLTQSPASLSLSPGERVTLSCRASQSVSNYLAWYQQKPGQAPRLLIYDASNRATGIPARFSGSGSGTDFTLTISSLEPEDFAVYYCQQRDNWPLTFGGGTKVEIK"
  measured result: 14.3
- binder: "A-011 (IgG1 format) (antibody, V domains shown, human IgG1 format) VH: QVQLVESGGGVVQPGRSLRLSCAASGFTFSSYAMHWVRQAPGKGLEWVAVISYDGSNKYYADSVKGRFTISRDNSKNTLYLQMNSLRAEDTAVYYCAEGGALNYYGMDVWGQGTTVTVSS VL: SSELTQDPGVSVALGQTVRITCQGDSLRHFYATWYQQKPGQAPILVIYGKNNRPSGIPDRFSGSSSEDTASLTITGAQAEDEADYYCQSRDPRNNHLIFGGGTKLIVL"
  measured result: 6.95
- binder: "A-012 (IgG1 format) (antibody, V domains shown, human IgG1 format) VH: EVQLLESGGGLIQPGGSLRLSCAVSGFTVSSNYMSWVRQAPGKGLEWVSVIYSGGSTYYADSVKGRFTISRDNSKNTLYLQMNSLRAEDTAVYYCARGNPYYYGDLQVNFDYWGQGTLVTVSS VL: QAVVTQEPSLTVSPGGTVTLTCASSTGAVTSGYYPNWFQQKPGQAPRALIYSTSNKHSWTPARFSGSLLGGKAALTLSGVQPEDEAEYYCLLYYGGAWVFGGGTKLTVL"
  measured result: 75.8
- binder: "A-006 (IgG1 format) (antibody, V domains shown, human IgG1 format; also called A-006-like ABP) VH: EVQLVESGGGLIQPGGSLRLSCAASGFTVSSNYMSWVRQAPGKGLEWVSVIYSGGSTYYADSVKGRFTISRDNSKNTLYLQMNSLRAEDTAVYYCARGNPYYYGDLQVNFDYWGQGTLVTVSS VL: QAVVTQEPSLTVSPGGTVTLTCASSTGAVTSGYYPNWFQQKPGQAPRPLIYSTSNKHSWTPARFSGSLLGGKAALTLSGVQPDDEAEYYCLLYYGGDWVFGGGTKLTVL"
  measured result: 81.1
- binder: "A-026 (IgG1 format) (antibody, V domains shown, human IgG1 format) VH: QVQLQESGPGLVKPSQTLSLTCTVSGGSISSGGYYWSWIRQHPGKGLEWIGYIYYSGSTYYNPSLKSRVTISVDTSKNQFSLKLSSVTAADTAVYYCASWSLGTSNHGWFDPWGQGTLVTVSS VL: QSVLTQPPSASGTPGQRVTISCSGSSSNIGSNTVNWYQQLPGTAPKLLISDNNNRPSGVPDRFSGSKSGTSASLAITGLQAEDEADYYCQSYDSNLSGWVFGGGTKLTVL"
  measured result: 64.4
- binder: "B-002 (chain-swapped IgG1) (antibody, V domains shown, human IgG1 format; also called B2) VH: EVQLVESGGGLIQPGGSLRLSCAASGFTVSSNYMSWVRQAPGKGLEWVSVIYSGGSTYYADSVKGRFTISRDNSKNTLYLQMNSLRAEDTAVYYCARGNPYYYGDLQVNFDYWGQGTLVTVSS VL: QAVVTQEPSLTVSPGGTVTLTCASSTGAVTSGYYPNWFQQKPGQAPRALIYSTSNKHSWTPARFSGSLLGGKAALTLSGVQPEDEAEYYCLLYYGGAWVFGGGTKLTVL"
  measured result: 80.1

Reference source for all entries: patent US20220372138A1
